Where do these numbers come from? They come from patent US10590158B2.

Test system: 293T cells
Experiment Summary: cells
Type: cell-based
Condition Summary: Homo sapiens, HEK-293T, 72 h, read-out: IC50 293T
Readout: IC50
Write the numeric value and follow it with the unit.

[[record]]
molecule = "COC(=O)NC1=C2/C(=C\\CSSC)[C@](O)(C#C/C=C\\C#C[C@]2(O)OC2OC(C)C(SC)(C(=O)c3nccc4c3[nH]c3ccc(O)cc34)C(O)C2OC2CC(OC)C(NC(C)C)CO2)CC1=O (some centres unmarked)"
experimental_system = "293T cells"
val = "1.46 pM"


Would you kindly look at the next entry?
Query: Missing value: IC50, 293T cells, entry COC(=O)NC1=C2/C(=C\CSSSC)[C@](O)(C#C/C=C\C#C[C@]2(O)OC2OC(C)C(SC)(C(=O)c3nccc4c3[nH]c3ccc(O)cc34)C(O)C2OC2CC(OC)C(NC(C)C)CO2)CC1=O (some centres unmarked) . Fill in?
Response: 16.2 pM
